- target-system: T1, Human LOX-1 full-length protein (human, UniProt P78380 1-273)
- T1 construct: also called huLOX-1/HEK293 cells; human LOX-1 transfected HEK293 cells
- test-protocol: flow cytometry, inhibition of dil-OxLDL binding to huLOX-1/HEK293 cells
# IC50 annotations
Record the result as a number with its unit.

E2E10 (murine parental) (antibody, IgG1, V domains shown, Mouse hybridoma monoclonal antibody, IgG1 with a kappa light chain; Biotinylated in the SET and neutrophil assays; also called Clone 39.1E2E10; mouse parental) VH: QVQLQQSGAELVRPGASVKLSCKALGYTFTDYEMHWVKQTPVHGLEWIGAIHPGSGGAAYIQKFKGKATLTADKSSSTAHMELSSLTSEDSAVYYCTRWLPMDYWGQGTSVTVSS VL: DIQMTQSSSYLSVSLGGRVTITCKASDHINNWLAWYQQKPGNAPRLLISGATSLETGVPSRFSGSGSGKDYTLSITGLQTEDVATYYCQQYLITPYTFGGGTKLEIK
4 nM

We next turn to a different binder, shown below.
The recorded IC50 for FF1 (antibody, human IgG1, kappa, L234A L235A, V domains shown, Humaneered variant of E2E10, tested as full human IgG (captured or detected with anti-human IgG); Biotinylated for the neutrophil assay; also called LLG783; LLG783 (FF1)) VH: QVQLVQSGAEVKKPGASVKVSCKASGYTFTDYEVHWVRQAPGQGLEWMGAIHPGSGGAAYVQKFQGRVTMTRDTSTSTAYMELSSLRSDDTAVYYCARWLPMDYWGQGTLVTVSS VL: DIQMTQSPSSVSASVGDRVTITCRASQGINNWLVWYQQKPGKAPKLLIYAASSLQSGVPSRFSGSGSGADYTLTISSLQPEDFATYYCQQYLITPYTFGQGTKLEIKR is 5.5 nM
